target or test system: NaV1.6 (Homo sapiens (Human), UniProt Q9UQD0)
protocol description: Sodium Influx Assay (Flux), NaV1.6;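 note: Tetracycline-induced cells, compounds applied for one hour at room temperature with modulators holding channels open, IC50 from percent inhibition of sodium influx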
Type: cell-based
condition summary: Trex HEK293 cells, ANG2 dye, inactivated state
Where a name gives a salt, the structure may show the parent alone.
assay readout: IC50
# do not omit the unit; it follows the number

Recorded results for 3 molecules are shown here.
C[C@H](Nc1ccc(S(=O)(=O)Nc2cscn2)c(F)c1Cl)c1c(F)cccc1F: 780 nM
C[C@H](Oc1cc(F)c(S(=O)(=O)Nc2cscn2)cc1Cl)c1ccccc1F: 814 nM
C[C@H](Nc1ccc(S(=O)(=O)Nc2cscn2)c(F)c1Cl)c1c(F)cccc1Cl: 1250 nM

Exercise: Query (molecule): C[C@H](Nc1cc(F)c(S(=O)(=O)Nc2ccnc(C(F)(F)F)n2)cc1Cl)c1ccccc1Cl ; field requested: IC50
Solution: 5380 nM

Exercise: Note, next up: O=S(=O)(Nc1cscn1)c1cc(Cl)c(NC2(c3cc(F)ccc3F)CC2)cc1F
Solution: 2000 nM

Exercise: Note, next up: O=S(=O)(Nc1cccc(F)n1)c1c(F)cc(NCc2c(F)cccc2CN2CCC2)cc1F [Example 322, formate]
Solution: 114 nM

Exercise: Note, next up: O=S(=O)(Nc1nccs1)c1ccc(N[C@H]2CCCc3cccnc32)c(Cl)c1
Solution: 8080 nM

Exercise: Note, next up: O=S(=O)(Nc1ncccn1)c1c(F)cc(NCc2c(F)cccc2CN2CCC2)cc1F [Example 145, 2,2,2-trifluoroacetate]
Solution: 467 nM

Exercise: Note, next up: Cc1cc(NCc2c(F)cccc2CN2CC(C)(C)C2)c(F)c(F)c1S(=O)(=O)Nc1cscn1 [Example 314, 2,2,2-trifluoroacetate]
Solution: 32 nM

Exercise: Note, next up: O=S(=O)(Nc1cscn1)c1c(F)cc(NCc2c(F)cccc2CN2CC3(CC3)C2)cc1F [Example 186, formate]
Solution: 19 nM

Exercise: Note, next up: O=S(=O)(Nc1ncns1)c1c(F)cc(NCc2ccccc2CN2CCC2)c(Cl)c1F [Example 327, formate]
Solution: 3 nM

----------
target or test system: NaV1.1 (Homo sapiens (Human), UniProt P35498)
protocol description: Sodium Influx Assay (Flux), NaV1.1;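 note: channels co-expressed with human β1 subunit and held open by modulators, cells exposed to compounds for one hour at room temperature, IC50 from percent inhibition of influx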
Type: cell-based
condition summary: Trex HEK293 cells, ANG2 dye, inactivated state
Structures can show the parent of a compound that is named as a salt.
assay readout: pIC50
# pIC50 is unitless: minus log10 of the molar concentration; print number only

Recorded results for 5 molecules are shown here.
C[C@H](Nc1cc(F)c(S(=O)(=O)Nc2cscn2)cc1Cl)c1ccccc1Cl: 5.13
CCC(Nc1cc(F)c(S(=O)(=O)Nc2nccs2)cc1Cl)c1ccccc1 (stereo not drawn): 5.48
O=S(=O)(Nc1ccon1)c1c(F)cc(NCc2ccccc2CN2CCC2)cc1F: 4.53
C[C@H](Nc1cc(F)c(S(=O)(=O)Nc2ncc(Cl)s2)cc1Cl)c1ccccc1F: 5.45
Cc1cc(NCc2ccccc2CN2CCC2)c(F)c(F)c1S(=O)(=O)Nc1cscn1 [Example 312, 2,2,2-trifluoroacetate]: 5.14

Exercise: Query (molecule): O=S(=O)(Nc1nccs1)c1cc(Cl)c(NCc2ccccc2CN2CCC2)cc1F [Example 16, 2,2,2-trifluoroacetate] ; field requested: pIC50
Solution: 5.27

Exercise: Note, next up: C[C@H](Nc1cc(F)c(S(=O)(=O)Nc2nccs2)cc1Cl)c1ccc(Cl)cc1
Solution: 5.33

Exercise: Note, next up: O=S(=O)(Nc1cscn1)c1c(F)cc(NCc2c(F)cccc2CN2CCC23COC3)cc1F [Example 157, formate]
Solution: 4.52
